- TESTED TARGET: FLT3 (Homo sapiens)
- Construct: made in house
- Sequence (P36888 27-993): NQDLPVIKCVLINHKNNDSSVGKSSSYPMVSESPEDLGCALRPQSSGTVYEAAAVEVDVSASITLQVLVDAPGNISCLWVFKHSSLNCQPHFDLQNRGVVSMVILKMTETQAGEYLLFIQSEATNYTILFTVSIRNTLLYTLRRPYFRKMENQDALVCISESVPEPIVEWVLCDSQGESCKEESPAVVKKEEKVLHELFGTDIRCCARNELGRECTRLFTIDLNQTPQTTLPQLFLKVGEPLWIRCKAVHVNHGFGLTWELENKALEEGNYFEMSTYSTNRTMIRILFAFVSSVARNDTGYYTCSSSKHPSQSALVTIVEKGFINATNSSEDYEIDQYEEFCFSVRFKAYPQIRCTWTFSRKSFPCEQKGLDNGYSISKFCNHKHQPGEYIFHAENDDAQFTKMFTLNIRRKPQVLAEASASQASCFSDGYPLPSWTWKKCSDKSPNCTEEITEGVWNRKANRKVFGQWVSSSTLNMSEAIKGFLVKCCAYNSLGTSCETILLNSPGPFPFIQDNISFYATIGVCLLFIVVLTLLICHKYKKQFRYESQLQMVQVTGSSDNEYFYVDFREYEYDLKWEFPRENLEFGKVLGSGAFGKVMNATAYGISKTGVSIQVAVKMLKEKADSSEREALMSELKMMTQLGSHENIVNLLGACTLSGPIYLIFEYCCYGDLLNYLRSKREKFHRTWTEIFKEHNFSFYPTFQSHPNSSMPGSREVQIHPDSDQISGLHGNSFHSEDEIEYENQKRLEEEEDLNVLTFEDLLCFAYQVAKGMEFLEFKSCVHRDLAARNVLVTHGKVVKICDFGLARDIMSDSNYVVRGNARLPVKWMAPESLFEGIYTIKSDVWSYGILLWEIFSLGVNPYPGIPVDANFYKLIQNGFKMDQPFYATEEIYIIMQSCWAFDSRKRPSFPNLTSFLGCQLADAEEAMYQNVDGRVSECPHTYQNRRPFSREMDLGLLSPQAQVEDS
- METHOD DESCRIPTION: Competition binding assay, FLT3 Kd
pKd: −log10 of the molar value.
PROPERTY: pKd

Entry under test: COc1cc2ncn(Cc3ccc4nc(NCc5ccccc5)sc4c3)c2cc1OC [Example 13] . Its pKd was 5.30 to 6.00

Reported pKd ( COc1cc2ncn(Cc3ccc4nc(NC5CCN(C(C)=O)CC5)sc4c3)c2cc1OC [Example 24, acetic acid] ) = < 5.30

For record CC(=O)NCc1cnc2c(c1)ncn2Cc1ccc2nc(N[C@@H]3CCCC[C@H]3O)sc2c1 [Example 99] the listed pKd is 5.30 to 6.00

Lab note: C=Cc1cnc2c(c1)ncn2Cc1ccc2nc(N[C@@H]3CCCC[C@H]3O)sc2c1 [Example 98] gave pKd of 6.00 to 6.70

Memo: O[C@@H]1CCCC[C@H]1Nc1nc2ccc(Cn3cnc4ccncc43)cc2s1 [Example 71] , reported pKd: < 5.30

Lab note: measured pKd of O[C@@H]1CCCC[C@H]1Nc1nc2ccc(Cn3cnc4cc(-c5cccnc5)cnc43)cc2s1 [Example 40] was ≥ 6.70

The recorded pKd for O[C@@H]1CCCC[C@H]1Nc1nc2ccc(Cc3cnc4ccccn34)cc2s1 [Example 38] is < 5.30

// sample COc1cc2ncn(Cc3ccc4nc(Nc5ccccc5)sc4c3)c2cc1OC [Example 22] , its pKd was 5.30 to 6.00

// recorded pKd for COc1cc2ncn(Cc3ccc4nc(NCC5CCCCC5)sc4c3)c2cc1OC [Example 28] : ≥ 6.70

response.value for O[C@@H]1CCCC[C@H]1Nc1nc2ccc(Cn3cnc4cc(-c5nn[nH]n5)cnc43)cc2s1 [Example 93] (field: pKd) = 6.00 to 6.70

Recorded pKd (compound COc1cc2ncn(Cc3ccc4nc(N[C@@H]5CCCC[C@H]5O)sc4c3)c2cc1C#N [Example 53] ): 5.30 to 6.00

So, O=C(O)c1cnc2c(c1)ncn2Cc1ccc2nc(N[C@@H]3CCCC[C@H]3O)sc2c1 [Example 81] ? Its pKd was 5.30 to 6.00

# pKd of OC[C@@H]1CCCC[C@H]1Nc1nc2ccc(Cn3cnc4cccnc43)cc2s1 [Example 66] = < 5.30

Quick note, pKd for COc1cc2ncn(Cc3ccc4nc(NC5CCOCC5)sc4c3)c2cc1OC [Example 15] landed at < 5.30

pKd measured on O[C@@H]1CCCC[C@H]1Nc1nc2ccc(Cn3cnc4ccc(Br)nc43)cc2s1 [Example 78] = ≥ 6.70

Form: compound = O[C@H]1CCCC[C@H]1Nc1nc2ccc(Cn3cnc4ccccc43)cc2s1 (racemic) [Example 1] ; pKd = 5.30 to 6.00

The recorded pKd for OC[C@@H](Nc1nc2ccc(Cn3cnc4cccnc43)cc2s1)C1CCCCC1 [Example 63] is ≥ 6.70

In plain terms, O[C@@H]1Cc2ccccc2[C@H]1Nc1nc2ccc(Cn3cnc4ccc(Br)nc43)cc2s1 [Example 80] has a documented pKd of 6.00 to 6.70

The recorded pKd for entry OCC1(CNc2nc3ccc(Cn4cnc5cccnc54)cc3s2)CCCCC1 [Example 76] equals ≥ 6.70

Short answer for OCc1cnc2c(c1)ncn2Cc1ccc2nc(N[C@@H]3CCCC[C@H]3O)sc2c1 [Example 84] : pKd was 5.30 to 6.00

Briefly, pKd measured for COc1cc2ncn(Cc3ccc4nc(N(C)C5CCCCC5)sc4c3)c2cc1OC [Example 16] : 6.00 to 6.70

Record COc1ccccc1Nc1nc2ccc(Cn3cnc4cc(OC)c(OC)cc43)cc2s1 [Example 30] . Reported pKd: 5.30 to 6.00

Please fill in: pKd reported for COc1cc2ncn(Cc3ccc4nc(N[C@@H]5CCCC[C@H]5O)oc4c3)c2cc1OC [Example 34] = ≥ 6.70

pKd for O[C@@H]1CCCC[C@H]1Nc1nc2ccc(Cn3cnc4ccccc43)cc2s1 [Example 6] is ≥ 6.70
